# EC50 of hC3 cleavage values compiled below
# target.or.system: plasma purified human complement protein C3 (human) (UniProt P01024)
# Sequence (P01024 23-667, chain 1 of 2): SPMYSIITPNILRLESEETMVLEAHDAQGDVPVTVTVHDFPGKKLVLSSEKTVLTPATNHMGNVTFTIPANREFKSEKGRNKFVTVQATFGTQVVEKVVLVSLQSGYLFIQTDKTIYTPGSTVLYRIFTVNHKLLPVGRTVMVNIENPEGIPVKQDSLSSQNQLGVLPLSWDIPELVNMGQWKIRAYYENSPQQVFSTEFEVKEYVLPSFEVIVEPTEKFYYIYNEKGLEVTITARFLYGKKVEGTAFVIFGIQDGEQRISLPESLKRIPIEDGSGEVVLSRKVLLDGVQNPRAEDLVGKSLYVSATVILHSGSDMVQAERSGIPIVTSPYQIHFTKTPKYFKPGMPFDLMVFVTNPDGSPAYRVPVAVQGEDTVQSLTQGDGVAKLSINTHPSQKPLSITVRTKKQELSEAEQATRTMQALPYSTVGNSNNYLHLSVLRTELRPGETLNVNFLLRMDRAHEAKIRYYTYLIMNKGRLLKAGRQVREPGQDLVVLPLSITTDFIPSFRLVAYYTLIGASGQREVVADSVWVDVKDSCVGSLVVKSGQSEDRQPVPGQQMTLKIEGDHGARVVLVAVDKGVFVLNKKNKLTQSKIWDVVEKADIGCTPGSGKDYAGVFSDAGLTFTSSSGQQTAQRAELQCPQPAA
# Sequence (P01024 672-1663, chain 2 of 2): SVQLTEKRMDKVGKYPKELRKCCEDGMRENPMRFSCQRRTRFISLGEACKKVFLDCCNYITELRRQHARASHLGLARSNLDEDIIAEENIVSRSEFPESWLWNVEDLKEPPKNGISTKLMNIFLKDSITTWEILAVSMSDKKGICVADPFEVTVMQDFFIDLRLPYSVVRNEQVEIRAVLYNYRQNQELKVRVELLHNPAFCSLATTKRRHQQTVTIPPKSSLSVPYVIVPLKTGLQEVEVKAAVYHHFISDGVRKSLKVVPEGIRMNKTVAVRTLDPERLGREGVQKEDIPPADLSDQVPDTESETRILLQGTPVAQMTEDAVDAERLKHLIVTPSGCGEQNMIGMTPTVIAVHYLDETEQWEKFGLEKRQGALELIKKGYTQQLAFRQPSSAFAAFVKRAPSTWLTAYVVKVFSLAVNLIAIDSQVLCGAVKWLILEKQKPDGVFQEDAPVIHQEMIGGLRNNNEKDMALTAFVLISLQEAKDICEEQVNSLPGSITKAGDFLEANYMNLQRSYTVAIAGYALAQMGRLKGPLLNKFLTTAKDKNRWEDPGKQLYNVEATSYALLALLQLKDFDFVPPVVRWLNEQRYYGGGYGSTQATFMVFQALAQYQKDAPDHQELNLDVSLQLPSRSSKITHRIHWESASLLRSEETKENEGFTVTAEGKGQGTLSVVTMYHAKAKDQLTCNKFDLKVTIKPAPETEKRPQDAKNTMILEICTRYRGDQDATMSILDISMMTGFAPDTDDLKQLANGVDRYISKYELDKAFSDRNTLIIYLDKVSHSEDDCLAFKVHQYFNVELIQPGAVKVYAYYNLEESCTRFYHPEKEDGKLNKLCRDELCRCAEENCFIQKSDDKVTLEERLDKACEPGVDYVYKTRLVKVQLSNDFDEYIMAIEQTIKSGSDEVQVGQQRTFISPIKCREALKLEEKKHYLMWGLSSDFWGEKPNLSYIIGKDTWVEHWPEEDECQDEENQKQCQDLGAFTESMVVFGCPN
# protocol.summary: cell-based or functional assay
Supply the numeric figure in nM, leaving out any unit text.

binder="MTSP-1 Q38F/I41A/D60bT/F60eG/Y60gW/ins97aE/F97T/T98G/F99L/C122S/Q175L/Q192E (enzyme) VVGGTDADEGEWPWQVSLHALGFGHACGASLISPNWLVSAAHCYIDTRGGRWSDPTQWTAFLGLHDQSQRSAPGVQERRLKRIISHPFFNDTEGLDYDIALLELEKPAEYSSMVRPISLPDASHVFPAGKAIWVTGWGHTQYGGTGALILQKGEIRVINQTTCENLLPQLITPRMMCVGFLSGGVDSCEGDSGGPLSSVEADGRIFQAGVVSWGDGCAQRNKPGVYTRLPLFRDWIKENTGV" endpoint_name="EC50 of hC3 cleavage" unit_label=nM observed_value=1.25

Then there is this binder:
State the recorded EC50 of hC3 cleavage for this entry: MTSP-1 H40P/I41R/ins97aE/F97T/T98G/F99L/C122S/G151D/Q175L/Q192E (enzyme) VVGGTDADEGEWPWQVSLHALGQGPRCGASLISPNWLVSAAHCYIDDRGFRYSDPTQWTAFLGLHDQSQRSAPGVQERRLKRIISHPFFNDTEGLDYDIALLELEKPAEYSSMVRPISLPDASHVFPAGKAIWVTGWGHTQYGGTDALILQKGEIRVINQTTCENLLPQLITPRMMCVGFLSGGVDSCEGDSGGPLSSVEADGRIFQAGVVSWGDGCAQRNKPGVYTRLPLFRDWIKENTGV 212
